Test system: EKVX NSCLC
Assay: NCI-60 one-dose screen, 48 h (100 = growth as untreated, 0 = no growth, -100 = all killed)
Settings: 10 µM unless noted
About 83,000 compounds went through this panel and 20% of them were active in at least one assay; those are over-represented in the sample as a whole.
observed.property: growth (%)

>>> reported_result("Cc1cc(C2(c3ccc(O)c(C)c3)OS(=O)(=O)c3ccccc32)ccc1O")
111
>>> reported_result("CCN1CCN(c2nc(C)cc(N(CCCNc3ccnc4cc(Cl)ccc34)Cc3ccc4c(c3)OCO4)n2)CC1")
35.8
>>> reported_result("COc1ccc(-c2nocc2-c2cc(OC)c(OC)c(OC)c2)cc1")
54.2
>>> reported_result("CC1(C=O)NC(=O)NC1=O (stereo not given)")
99.6
>>> reported_result("CC[C@H](Nc1ncnc2nc[nH]c12)c1nc2cccc(F)c2c(=O)n1-c1ccccc1")
80.1
>>> reported_result("CO[C@H]1C[C@@H]2CC[C@@H](C)[C@@](O)(O2)C(=O)C(=O)N2CCCC[C@H]2C(=O)O[C@H]([C@H](C)C[C@@H]2CC[C@@H](OP(C)(C)=O)[C@H](OC)C2)CC(=O)[C@H](C)/C=C(\\C)[C@@H](O)[C@@H](OC)C(=O)[C@H](C)C[C@H](C)\\C=C/C=C/C=C/1C")
49.8
>>> reported_result("Cc1cc(Nc2ncc(Cl)c(Nc3ccccc3S(=O)(=O)C(C)C)n2)c(OC(C)C)cc1C1CCNCC1")
-87.6
>>> reported_result("c1cc(OCCN2CCCCC2)cc(-c2n[nH]c3ccc(-c4ncn[nH]4)cc23)c1")
76.7
>>> reported_result("Cc1ccc(C(=O)Nc2ccc(CN3CCN(C)CC3)c(C(F)(F)F)c2)cc1C#Cc1cnc2cccnn12")
-84.4
>>> reported_result("Nc1ccc(S(=O)(=O)O)c2cc(S(=O)(=O)O)cc(O)c12")
101
>>> reported_result("O=C(Nc1ccc(-c2ccnc(Nc3ccc(N4CCOCC4)cc3)n2)cc1)[C@@H]1CCCN1")
71.7
>>> reported_result("CCOC(=O)C1=C(C)N=C2Sc3cc(OC(F)(F)F)ccc3N2[C@H]1c1ccccn1")
26.8
>>> reported_result("O=C(Cc1ccc(/C=C/C(=O)c2ncc[nH]2)cc1)Nc1ccc(Br)cc1")
38.6
>>> reported_result("Cc1c(Cn2c(C)nc3c(C(=O)O)cc(N4CCOCC4)cc32)cccc1C(F)(F)F")
101
>>> reported_result("O=C(Cc1ccc(-c2ccc(OCCN3CCOCC3)cc2)cn1)NCc1ccccc1")
26.1
>>> reported_result("CNS(=O)(=O)Nc1nccc(Cc2c(C)c3ccc(Oc4ncccn4)cc3oc2=O)c1F")
55
>>> reported_result("O=C(NOC[C@H](O)CO)c1ccc(F)c(F)c1Nc1ccc(I)cc1F")
57.6
>>> reported_result("Cc1cc(N2CCOCC2)nc(N(CCNc2ccnc3cc(Cl)ccc23)Cc2cccs2)n1")
51.5
>>> reported_result("NS(=O)(=O)c1ccc(CCN2C(=O)/C(=C\\c3ccc(Cl)cc3)C=C2c2ccc3ccccc3c2)cc1")
89.4
>>> reported_result("CCN(CCO)CCCOc1ccc2c(Nc3cc(CC(=O)Nc4cccc(F)c4)[nH]n3)ncnc2c1")
51.8

----------
System: UO-31 renal
Test: NCI-60 one-dose screen, 48 h (100 = growth as untreated, 0 = no growth, -100 = all killed)
Settings: 10 µM unless noted
Compounds without any hit were thinned out: in the full panel of roughly 83,000, 20% have a hit.
Recorded growth by entry
observed.property: growth (%)

>>> reported_result("CCOC(=O)C1=C(C)N=C2Sc3cccc(OC)c3N2[C@H]1c1ccccn1")
75.3
>>> reported_result("C=CCC(=O)N[C@H](/C=C/C(=O)O)Cc1ccc(-c2cc(Cl)cc(Cl)c2)cc1")
81
>>> reported_result("COc1cc(OC)c(C(=O)/C=C/c2cc3c(cc2OCc2ccccc2)OC(C)(C)CC3)cc1CC=C(C)C")
51.4
>>> reported_result("Nc1ccc(S(=O)(=O)O)c2cc(S(=O)(=O)O)cc(O)c12")
107
>>> reported_result("O=C1C=CC2(NN=C(c3ccccc3)N2c2cccc(Cl)c2)C(Cl)=C1 (stereo unspecified)")
51.5
>>> reported_result("CC(=O)CC1CCCC1c1ccc2ccccc2c1 (stereo unspecified)")
84.7
